Biological target: Polyunsaturated fatty acid lipoxygenase ALOX12 (Homo sapiens) (UniProt P18054)
Sequence (P18054 whole entry, looked up): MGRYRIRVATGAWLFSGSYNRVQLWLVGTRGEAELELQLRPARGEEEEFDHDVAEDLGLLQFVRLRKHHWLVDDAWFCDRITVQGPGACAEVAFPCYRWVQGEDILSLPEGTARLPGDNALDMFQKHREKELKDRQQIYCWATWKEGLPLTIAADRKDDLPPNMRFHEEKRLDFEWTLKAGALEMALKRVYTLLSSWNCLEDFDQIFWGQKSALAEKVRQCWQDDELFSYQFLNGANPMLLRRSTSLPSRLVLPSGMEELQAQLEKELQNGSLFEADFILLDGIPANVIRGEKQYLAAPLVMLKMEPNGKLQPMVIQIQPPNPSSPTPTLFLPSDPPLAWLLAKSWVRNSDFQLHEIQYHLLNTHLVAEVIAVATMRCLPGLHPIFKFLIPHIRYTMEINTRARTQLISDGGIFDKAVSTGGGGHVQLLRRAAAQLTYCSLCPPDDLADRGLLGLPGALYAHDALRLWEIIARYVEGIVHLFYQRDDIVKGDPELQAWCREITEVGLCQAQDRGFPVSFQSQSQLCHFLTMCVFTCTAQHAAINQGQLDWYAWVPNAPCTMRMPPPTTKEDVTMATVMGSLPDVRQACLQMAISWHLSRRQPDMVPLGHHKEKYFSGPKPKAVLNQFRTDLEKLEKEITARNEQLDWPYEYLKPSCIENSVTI
Test: Primary qHTS assay for inhibitors of human arachidonate 12S-lipoxygenase (ALOX12): Round 2; also: potency is read from the fitted curve at half-maximal effect
Conditions: purified 12hLO, xylenol orange hydroperoxide absorbance; series mostly up to 108 µM
From the text: Assay Provider: Theodore R. Holman Ph.D. University of California, Santa Cruz, California Human lipoxygenase 12hLO is a member of the closely related lipoxygenase family of enzymes which catalyze the site-specific oxidation of arachidonic acid to various hormone precursor molecules and as such is a candidate for drug development in a variety of disease areas, such as cancer and inflammation. […] The Fe (III)-XO complex is characterized with red-shifted absorbance at 560 nm. […]
The campaign covered roughly 580,000 compounds. About 6,100 (1.1%) were called active. Not shown: some 15% with an inconclusive outcome. The list comes from a sample in which actives are over-represented; it also holds close analogues and randomly drawn compounds.

{"COMPOUND": "COc1cc(OC)cc(C(=O)OCC(=O)Nc2c(C)cccc2C(C)C)c1", "Potency": "inactive"}
{"COMPOUND": "Cc1nc2sc(C(=O)OCC(=O)Nc3cccc(C(F)(F)F)c3)c(C)c2c(=O)[nH]1", "Potency": "inactive"}
{"COMPOUND": "COc1cc(/C=C/C(N)=O)cc(OC)c1OC", "Potency": "inactive"}
{"COMPOUND": "CCOC(=O)N1CCN(Cc2nc3c(c(=O)[nH]c(=O)n3C)n2Cc2ccc(F)cc2)CC1", "Potency": "inactive"}
{"COMPOUND": "COc1ccc(C2Cn3cnc(-c4nc(-c5ccc(OC)cc5OC)no4)c3CO2)cc1 (stereo unspecified)", "Potency": "inactive"}
{"COMPOUND": "O=C(NC(=S)Nc1ccccc1C(=O)O)c1ccc(-c2ccc(Br)cc2)o1", "Potency": "10 µM (active)"}
{"COMPOUND": "CC1(C)N=C(SCc2ccccc2Cl)c2ccccc2N1", "Potency": "inactive"}
{"COMPOUND": "COc1ccc(NC(=O)CN(C)C(=O)c2nc(-c3ccccc3)oc2C)cc1", "Potency": "inactive"}
{"COMPOUND": "CC(Sc1cc(F)ccc1F)C(=O)Nc1ccnn1C(C)C (stereo unspecified)", "Potency": "inactive"}
{"COMPOUND": "CC(C(=O)NC(=O)NC1CCCCC1)n1cnc2c1c(=O)n(C)c(=O)n2C (stereo unspecified)", "Potency": "inactive"}
{"COMPOUND": "Clc1ccccc1CSc1nnc(-c2ccco2)c(-c2ccco2)n1", "Potency": "3.55 µM (active)"}
{"COMPOUND": "O=C(NCCc1ccccc1)Oc1ccc(Cl)cc1", "Potency": "inactive"}
{"COMPOUND": "COc1ccc(-n2nnc(C(=O)NCc3ccccc3)c2N)cc1OC", "Potency": "inactive"}
{"COMPOUND": "S=C(NCCc1ccc(Cl)cc1)Nc1ccc(Oc2ccccc2)cc1", "Potency": "17.8 µM (active)"}
{"COMPOUND": "CSc1ccc(/C=N/N2CCN(Cc3ccccc3Cl)CC2)cc1", "Potency": "inactive"}
{"COMPOUND": "CCCCOCCCNC(=O)c1cccc(C#N)c1", "Potency": "inactive"}
{"COMPOUND": "Cc1ccc(C)c(C(C)NC(=S)NCc2ccc(Cl)cc2)c1 (stereo unspecified)", "Potency": "31.6 µM (active)"}
{"COMPOUND": "CC(C)CN1CCOC(CNC(=O)N2CCN(S(=O)(=O)c3ccc(C#N)cc3)CC2)C1 (stereo unspecified)", "Potency": "inactive"}
{"COMPOUND": "CC(C)N(C(=O)COC(=O)/C=C/c1cccc2cccnc12)c1ccccc1", "Potency": "inactive"}
{"COMPOUND": "CC(=O)OC1C2COC(O2)C(OC(C)=O)C1OC(C)=O (stereo unspecified)", "Potency": "inactive"}
{"COMPOUND": "CCNC(=S)Nc1ccc(C)cc1Br", "Potency": "inactive"}
{"COMPOUND": "Cc1ccc(-c2c3c(=O)n(C)c(=O)n(C)c3c3n2C(C)(C)COC3c2ccc(C)cc2O)cc1 (stereo unspecified)", "Potency": "6.31 µM (active)"}
{"COMPOUND": "Cc1nn(C)c2c1c(C(F)(F)F)cc(=O)n2C(C)C(=O)NCc1ccc(Cl)cc1 (stereo unspecified)", "Potency": "inactive"}
{"COMPOUND": "O=C1NC(=O)C(=Cc2cccc(C(F)(F)F)c2)S1", "Potency": "inactive"}
{"COMPOUND": "CCCCCCCOc1ccc(C(=O)Oc2cncc(Cl)c2)cc1", "Potency": "inactive"}
{"COMPOUND": "Cc1oc(-c2ccccc2)nc1C(=O)NC(C1CC1)C1CC1", "Potency": "inactive"}
{"COMPOUND": "COc1ccc(/C=C/C2=CC(C)(C)NC(=S)N2)c(OC)c1", "Potency": "39.8 µM (active)"}
{"COMPOUND": "O=C1CC(NCc2ccoc2)CN1CCc1cccc(Cl)c1 (stereo unspecified)", "Potency": "inactive"}
{"COMPOUND": "Cc1ccc(-c2c3c(=O)n(C)c(=O)n(C)c3cn2-n2cnnc2)cc1", "Potency": "inactive"}
{"COMPOUND": "COc1ccc(/C=C2/C(=O)OCc3cc(OC)c(OC)cc32)c(OC)c1", "Potency": "inactive"}
{"COMPOUND": "CCOc1cccc(/C=N/N2C(=O)CSC2=S)c1O", "Potency": "31.6 µM (active)"}
{"COMPOUND": "CC(=O)Nc1ccc(S(=O)(=O)N2CCN(c3ccccc3)CC2)cc1", "Potency": "inactive"}
{"COMPOUND": "Cc1nnc(SCc2cc(=O)[nH]c(N3CCN(Cc4ccccc4)CC3)n2)s1", "Potency": "inactive"}
{"COMPOUND": "Cc1cccc(NC(=S)N2CCC(O)CC2)c1C", "Potency": "inactive"}
{"COMPOUND": "COc1ccc(C(=O)CSc2n[nH]c(N)n2)cc1", "Potency": "inactive"}
{"COMPOUND": "c1ccc(C(=NNc2nc3ccccc3s2)c2ccccn2)cc1", "Potency": "44.7 µM (active)"}
{"COMPOUND": "NS(=O)(=O)c1ccc2nc(NC(=O)COc3ccccc3)sc2c1", "Potency": "inactive"}
{"COMPOUND": "O=C(CCc1ncc(-c2ccccc2)o1)Nc1nc2ccccc2s1", "Potency": "inactive"}
{"COMPOUND": "CC(C)CC(CC(C)C)=NNC(=O)COc1ccc(C#N)cc1", "Potency": "inactive"}
{"COMPOUND": "COc1ccc(/C=N/OCc2ccccc2C#N)c(OC)c1", "Potency": "inactive"}
{"COMPOUND": "Cc1cccc(NC(c2cccc(F)c2)c2ccc3ccc(C)nc3c2O)n1 (stereo unspecified)", "Potency": "25.1 µM (active)"}
{"COMPOUND": "O=C(NC(=O)c1ccccc1N1CCCCC1)Nc1ccc(Br)cc1", "Potency": "inactive"}
{"COMPOUND": "Fc1ccc(Nc2nc(SCc3ccccc3Cl)nc3ccccc23)cc1", "Potency": "inactive"}
{"COMPOUND": "CCCc1nc2c(-c3ccc(Cl)cc3)c(C)[nH]n2c(=O)c1Cl", "Potency": "inactive"}
{"COMPOUND": "N#CCCN1CCC(c2ccccc2)C1 (stereo unspecified)", "Potency": "inactive"}
{"COMPOUND": "O=C(NC1CCN(Cc2ccccc2)C1)c1cc2ccccc2oc1=O (stereo unspecified)", "Potency": "inactive"}
